Target: T1, cynomolgus monkey FCRL1 (XP_015310712), transiently expressed on 293T cells (cynomolgus monkey)
T1 chain: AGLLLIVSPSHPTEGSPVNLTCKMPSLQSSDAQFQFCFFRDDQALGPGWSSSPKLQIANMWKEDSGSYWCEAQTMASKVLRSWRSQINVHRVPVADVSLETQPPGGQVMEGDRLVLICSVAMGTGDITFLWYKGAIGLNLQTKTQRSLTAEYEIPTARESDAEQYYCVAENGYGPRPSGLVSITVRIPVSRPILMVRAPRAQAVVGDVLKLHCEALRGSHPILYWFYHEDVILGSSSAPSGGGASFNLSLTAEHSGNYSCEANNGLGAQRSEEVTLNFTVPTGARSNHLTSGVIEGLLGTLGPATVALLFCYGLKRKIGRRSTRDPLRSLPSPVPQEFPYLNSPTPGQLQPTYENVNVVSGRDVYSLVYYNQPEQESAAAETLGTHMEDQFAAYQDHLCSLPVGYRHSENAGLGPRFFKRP
Assay: flow cytometry on 293T cells transiently expressing cynomolgus monkey FCRL1; apparent KD from EC50 of a 4-parameter fit
pKd: −log10 of the molar value.

>  <binder>
anti-human FCRL1 mouse monoclonal antibody DK681 (antibody, V domains shown) VH: QVQLQQPGAELVKPGTSVKLSCKASGYTFTRYWMHWVKQRPGQGLEWIGRIDPNSGGSKYNEKFKSKATLTVDKTSSSAYMQLNSLTSEDSAVYYCTRVNSGAMDYWGQGTSVTVSS VL: DIVMSQSPSSLAVSVGEKVTMSCKSSQSLLYSSNQKNYLAWYQQKPGQSPKLLIYWASTRESGVPDRFTGSGSGTDFTLTISSVKAEDLAIYYCQQYSNYPTFGSGTKLEIK

>  <pKd>
9.10

$$$$
>  <binder>
anti-human FCRL1 mouse monoclonal antibody DK1142 (antibody, V domains shown) VH: QVQLQQSGPELVKPGASVRISCKASGYTFTSYNIHWVKQRPGQGLEWIGWIYPGDGNPKYNEKFKGKTTLTADKSSSTAYMQLSSLTSEDSAVYFCARRIHYYDYFDYWGQGTTLTVSS VL: DVLMTQTPLSLPVSLGDQASISCRSSQSIVHSNGNTYLEWYLQKPGQSPKLLIYKVSNRFSGVPDRFSGSGSGTDFTLKISRVEADDLGVYYCFQGSHVPWTFGGGTKLEIK

>  <pKd>
8.96

$$$$
